# credit: ChEMBL document CHEMBL1240528

System: Escherichia coli
assay.remarks: Inhibition of Escherichia coli MurD ligase assessed as residual activity at 250 uM by colorimetry; values are per cent of control
assay.readout: residual activity (%)

Worked cases, residual activity given:
O=C(O)CC[C@@H](NC(=O)c1ccc(CNc2cccc(/C=C3\SC(=O)NC3=O)c2)cc1)C(=O)O	85
O=C(O)CC[C@@H](NC(=O)c1cccc(CNc2cccc(/C=C3\SC(=O)NC3=O)c2)c1)C(=O)O	87
O=C(O)CC[C@@H](NC(=O)c1ccc(CNc2ccc(/C=C3\SC(=S)NC3=O)cc2)cc1)C(=O)O	74
O=C(O)CC[C@H](NC(=O)c1ccc(CNc2cccc(/C=C3\SC(=O)NC3=O)c2)cc1)C(=O)O	87
O=C(O)CC[C@H](NC(=O)c1ccc(CNc2ccc(/C=C3\SC(=O)NC3=O)cc2)cc1)C(=O)O	88
O=C(O)CC[C@H](NC(=O)c1ccc(CNc2ccc(/C=C3\SC(=S)NC3=O)cc2)cc1)C(=O)O	68

P = O=C(O)CC[C@@H](NC(=O)c1ccc(CNc2ccc(/C=C3\SC(=O)NC3=O)cc2)cc1)C(=O)O
Q = O=C(O)CC[C@@H](NC(=O)c1cccc(CNc2cccc(/C=C3\SC(=S)NC3=O)c2)c1)C(=O)O
## Input // compare: P vs Q , metric residual activity, want the smaller In your reply, give the label of the chosen option.
## Output Q
(Q: 39%, P: 70%)
